# study-system: T1, soluble human FcRn (shFcRn) (human, UniProt P55899 24-297; P61769 21-119, biotinylated with Sulfo-NHS-LC-Biotin in the ELISA; amine-coupled to a CM5 chip in SPR)
# T1 construct: also called biotinylated shFcRn
# T1 sequence (P55899 24-297 limits assumed, chain 1 of 2): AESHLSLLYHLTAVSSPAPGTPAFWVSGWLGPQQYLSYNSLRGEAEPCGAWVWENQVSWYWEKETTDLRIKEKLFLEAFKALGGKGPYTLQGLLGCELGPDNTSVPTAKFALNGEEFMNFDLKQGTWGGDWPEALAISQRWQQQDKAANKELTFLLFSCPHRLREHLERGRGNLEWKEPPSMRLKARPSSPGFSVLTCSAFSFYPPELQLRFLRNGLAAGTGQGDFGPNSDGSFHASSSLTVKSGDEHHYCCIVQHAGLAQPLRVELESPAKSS
# T1 sequence (P61769 21-119 limits assumed, chain 2 of 2): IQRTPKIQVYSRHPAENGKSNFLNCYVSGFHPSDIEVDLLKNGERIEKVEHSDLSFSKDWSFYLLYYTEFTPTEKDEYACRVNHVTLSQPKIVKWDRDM
# method-summary: SPR, pH 6; small-letter c (D-cysteine) at first Cys position, no Pen

{"columns": ["binder", "Kd (µM)"],
 "data": [
  ["QRFXTGHFGGLYPCNGP (D-Cys4; disulfide; C-terminal amide) [Peptide No. 29]", 150]
]}
